Listed compounds paired with reported pIC50
tested on: PC43–10 CHO cells (human RFC); assay: Proliferation assay, RFC-expressing PC43–10 CHO cells; conditions: PC43-10, 96 h, read-out: IC50 PC43–10 (RFC)
pIC50: −log10 of the molar value.

Assign pIC50 to the following record: Nc1nc2sc(CCCc3ccc(C(=O)N[C@@H](CCC(=O)O)C(=O)O)s3)cc2c(=O)[nH]1
< 6.00

Next:
Assign pIC50 to the following record: Nc1nc2sc(CCCCc3cc(C(=O)N[C@@H](CCC(=O)O)C(=O)O)cs3)cc2c(=O)[nH]1
< 6.00

The reported numbers originate from paper PMC8058616.
